Would you kindly list growth for each of these molecules?
Tested on: SNB-75 CNS
run.description: NCI-60 one-dose screen, 48 h (100 = growth as untreated, 0 = no growth, -100 = all killed)
measurement.setup: 10 µM unless noted
This is part of a sample that, as a whole, favours compounds with a hit. Of some 83,000 tested, about 20% had one in any assay. Active and inactive are the calls of the source. The calls were made as follows: active = growth percent below 10; inactive = the rest.

**Query** Return reported growth; argument: Cc1ccc(Cl)cc1NC(=O)c1sc2nc3c(cc2c1N)C(=O)CCC3
**Result** 48% (inactive)

**Query** // same read-out, input: Cc1ccc(N2C(=O)CCC2=O)cc1
**Result** 103% (inactive)

**Query** // same read-out, input: CN1CCN(CCOc2ccc(-c3cnc4c(-c5ccc(F)cc5)cnn4c3)cc2)CC1
**Result** 68% (inactive)

**Query** // same read-out, input: Oc1c(CN2CCOCC2)cc(COCc2ccccc2)c2cccnc12
**Result** 49.5% (inactive)

**Query** // same read-out, input: O=C(/C=C/c1ccccc1)c1ccc(Nc2nc(Nc3ccc(F)cc3)nc(Nc3ccc(Cl)cc3)n2)cc1
**Result** 95% (inactive)
